From: ChEMBL document CHEMBL1123433

Answer each item with its documented MIC.
Tested on: Staphylococcus aureus
assayRemarks: Compound was tested for antibacterial activity against Staphylococcus aureus WSU-196E
Type: functional

I am curious: what MIC value has been reported for `COc1cccc2c1C(=O)c1c(O)c3c(c(O)c1C2=O)C[C@@](O)(C(C)=O)C[C@@H]3O[C@H]1C[C@H](N)[C@H](O)[C@H](C)O1` ?
< 5 µg/mL

I am curious: what MIC value has been reported for `COc1cccc2c1C(=O)c1c(O)c3c(c(O)c1C2=O)C[C@@](O)(C(=O)CO)C[C@@H]3O[C@H]1C[C@H](N)[C@H](O)[C@H](C)O1` ?
10 µg/mL

I am curious: what MIC value has been reported for NC1C(OCc2cc(O)c3c(c2)C(=O)c2cccc(O)c2C3=O)OC(O)C(O)C1O (configuration not stated) ?
> 200 µg/mL

I am curious: what MIC value has been reported for NC1C(OCc2ccc3c(c2)C(=O)c2ccccc2C3=O)OC(O)C(O)C1O (configuration not stated) ?
> 200 µg/mL

I am curious: what MIC value has been reported for NC1C(OCc2cc(O)c3c(c2O)C(=O)c2ccccc2C3=O)OC(O)C(O)C1O (configuration not stated) ?
> 200 µg/mL

I am curious: what MIC value has been reported for NC1C(OCc2ccc3c(c2O)C(=O)c2ccccc2C3=O)OC(O)C(O)C1O (configuration not stated) ?
200 µg/mL

I am curious: what MIC value has been reported for NC1C(OCc2ccc3c(c2O)C(=O)c2c(O)cccc2C3=O)OC(O)C(O)C1O (configuration not stated) ?
200 µg/mL

* * *

System: Bacillus cereus
assayRemarks: Compound was tested for antibacterial activity against Bacillus cereus WSU-60
Assay type: functional
quantityName: MIC (µg/mL)
State the answer as a number, implicitly in µg/mL.

I am curious: what MIC value has been reported for NC1C(OCc2cc(O)c3c(c2O)C(=O)c2ccccc2C3=O)OC(O)C(O)C1O (configuration not stated) ?
50

I am curious: what MIC value has been reported for NC1C(OCc2ccc3c(c2O)C(=O)c2ccccc2C3=O)OC(O)C(O)C1O (configuration not stated) ?
100

I am curious: what MIC value has been reported for NC1C(OCc2cc(O)c3c(c2)C(=O)c2cccc(O)c2C3=O)OC(O)C(O)C1O (configuration not stated) ?
200

I am curious: what MIC value has been reported for COc1cccc2c1C(=O)c1c(O)c3c(c(O)c1C2=O)C[C@@](O)(C(=O)CO)C[C@@H]3O[C@H]1C[C@H](N)[C@H](O)[C@H](C)O1 [DOXORUBICIN] ?
10

I am curious: what MIC value has been reported for NC1C(OCc2ccc3c(c2O)C(=O)c2c(O)cccc2C3=O)OC(O)C(O)C1O (configuration not stated) ?
50
